Quick list: GI50 per entry.
test system: UACC-62; assay: NCI tumour cell line growth inhibition, 48 h
Calls of active or inactive are those of the source. No stated cut-off is given here; in the data, active = GI50 up to about 1.1 µM and inactive = higher.

A selection of reference data follows.
[
  {
    "molecule": "Oc1cc(Cc2ccccc2)c(Cc2ccccc2)cc1O",
    "GI50": "> 10 µM (inactive)"
  },
  {
    "molecule": "CCC1(O)CC(c2ccccc2)N(C)C(c2ccccc2)C1 (centres undefined)",
    "GI50": "> 100 µM (inactive)"
  },
  {
    "molecule": "CC(=O)/C(=C\\NC(N)=S)C(=O)Nc1ccccc1C",
    "GI50": "> 100 µM (inactive)"
  }
]

Next, consider the following molecule.
Lookup: GI50 / UACC-62 / CCOC(=O)c1c(NC(=S)NCc2ccccc2)sc2c1CCN(C)C2
> 100 µM (inactive)

----------
tested on: M14; experiment: NCI tumour cell line growth inhibition, 48 h
The source made the active and inactive calls. Rule as the data show it: active = GI50 up to about 1.1 µM and inactive = higher.
readoutType: GI50

A selection of reference data follows.
[
  {
    "recordSmiles": "CCOC(=O)c1cc2c(nc1N)-c1ncccc1CC2",
    "readoutType": "GI50",
    "assayResult": "> 100 µM (inactive)"
  },
  {
    "recordSmiles": "COc1cc2ccc1OCc1cccc(n1)COc1ccc(cc1OC)/C=N\\c1ccc(cc1)-c1ccc(cc1)/N=C\\2",
    "readoutType": "GI50",
    "assayResult": "> 100 µM (inactive)"
  }
]

Next, consider the following compound.
Recorded GI50 for COc1cccc(O)c1-c1cc(=O)c2c(O)c(OC)c(OC)c(OC)c2o1 , please?
23.5 µM (inactive)

----------
Quick list: GI50 per entry.
system: OVCAR-4; experiment: NCI tumour cell line growth inhibition, 48 h
Activity calls are given as the source filed them. Rule as the data show it: active = GI50 up to about 1.1 µM and inactive = higher.

[
  {
    "molecule": "CN(C)c1ccc(/C=C/c2nc3ccccc3s2)cc1",
    "readoutType": "GI50",
    "assayResult": "> 100 µM (inactive)"
  },
  {
    "molecule": "COc1ccc(O)c(/C(C)=N/NC(=S)N(C)C)c1",
    "readoutType": "GI50",
    "assayResult": "2.63 µM (inactive)"
  },
  {
    "molecule": "CC(=O)/C(=C\\NC(N)=S)C(=O)Nc1ccccc1C",
    "readoutType": "GI50",
    "assayResult": "> 100 µM (inactive)"
  },
  {
    "molecule": "CC1(C)C(O)C[C@]23CCC[C@](C)(C[C@@H](O)C12)C3 (stereo partly specified)",
    "readoutType": "GI50",
    "assayResult": "> 100 µM (inactive)"
  },
  {
    "molecule": "COc1ccc(C2C(=O)C(Cl)N2Nc2nc(C)cc(O)n2)cc1OC (stereo unspecified)",
    "readoutType": "GI50",
    "assayResult": "30.8 µM (inactive)"
  }
]

Next, consider the following molecule.
Recorded GI50 for COc1cc(Cn2c3ccccc3c3cc(C)c4c(c32)C=CC(C)(CCC=C(C)C)O4)cc2c1[nH]c1ccccc12 (stereo unspecified) [CHRESTFOLINE C] , please?
> 100 µM (inactive)

----------
Quick list: GI50 per entry.
system: UO-31; experiment: NCI tumour cell line growth inhibition, 48 h
Calls of active or inactive are those of the source. Rule as the data show it: active = GI50 up to about 1.1 µM and inactive = higher.

A selection of reference data follows.
[
  {
    "compound": "Cc1ccccc1C(=O)C#Cc1cn(C2CC(O)C(CO)O2)c(=O)[nH]c1=O (centres undefined)",
    "readoutType": "GI50",
    "assayResult": "> 100 µM (inactive)"
  },
  {
    "compound": "Cc1cc2c(c(C(=O)NCC(=O)N[C@@H](C)C(=O)OCc3ccccc3)c1)Oc1c(cc(C)cc1C(=O)NCC(=O)N[C@@H](C)C(=O)OCc1ccccc1)S2",
    "readoutType": "GI50",
    "assayResult": "> 100 µM (inactive)"
  },
  {
    "compound": "COc1ccc(C2C(=O)C(Cl)N2Nc2nc(C)cc(O)n2)cc1OC (centres undefined)",
    "readoutType": "GI50",
    "assayResult": "29.9 µM (inactive)"
  }
]

Recorded GI50 for O=C1C(=Cc2cccc(Cl)c2)N=C(c2ccccc2)N1n1c(-c2ccccc2)nc2ccccc2c1=O , please?
34.4 µM (inactive)
